- Tested on: PC-3 prostrate cell adenocarcinoma
- ASSAY: Relative colony forming efficiency (Example 17, Table 13)
- Assay type: cell-based, human
- ASSAY_SETUP: averages of 2-8 determinations
Oligonucleotides are written 5' to 3', each unit as a sugar letter and its base; * is a phosphorothioate linkage, no mark a phosphodiester; rarer units and linkages stand in square brackets, end groups in braces. Plain capitals give the bases only. d = 2'-deoxy (DNA)
Hi, to clarify the labels: t covers Reduced relative colony forming efficiency, PC-3 (% inhibition of colony forming ability) from 80% upward, f covers anything below 80%.

>>> qualitative_label("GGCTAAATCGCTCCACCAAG (chemistry not given here) [SEQ ID NO: 1, antisense oligonucleotide that hybridizes to the coding region of human ribonucleotide reductase R2 mRNA]")
"t"
>>> qualitative_label("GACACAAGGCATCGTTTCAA (antisense dG*dA*dC*dA*dC*dA*dA*dG*dG*dC*dA*dT*dC*dG*dT*dT*dT*dC*dA*dA) [AS-II-784-20]")
"t"
>>> qualitative_label("GCAAAGGCTACAACACGTTC (antisense dG*dC*dA*dA*dA*dG*dG*dC*dT*dA*dC*dA*dA*dC*dA*dC*dG*dT*dT*dC) [AS-II-861-20]")
"t"
>>> qualitative_label("TGGGACAGGGTGCACGGGCG (antisense dT*dG*dG*dG*dA*dC*dA*dG*dG*dG*dT*dG*dC*dA*dC*dG*dG*dG*dC*dG) [AS-II-130-20]")
"f"
>>> qualitative_label("GTCTCTCCTCCGATGGTTTG [AS-II-1040-20]")
"f"
>>> qualitative_label("AGCCTCTGCCTTCTTATACA (antisense dA*dG*dC*dC*dT*dC*dT*dG*dC*dC*dT*dT*dC*dT*dT*dA*dT*dA*dC*dA) [AS-II-472-20]")
"t"
>>> qualitative_label("CACACAACCTACTTACACCA (antisense dC*dA*dC*dA*dC*dA*dA*dC*dC*dT*dA*dC*dT*dT*dA*dC*dA*dC*dC*dA) [AS-II-2372-20]")
"t"
>>> qualitative_label("TTAGTGGTCAGGAGAATGTA (antisense dT*dT*dA*dG*dT*dG*dG*dT*dC*dA*dG*dG*dA*dG*dA*dA*dT*dG*dT*dA) [AS-II-1819-20]")
"t"
>>> qualitative_label("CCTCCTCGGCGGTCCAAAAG (antisense dC*dC*dT*dC*dC*dT*dC*dG*dG*dC*dG*dG*dT*dC*dC*dA*dA*dA*dA*dG) [AS-II-494-20]")
"f"
>>> qualitative_label("CGGCGGCGTGTT (antisense dC*dG*dG*dC*dG*dG*dC*dG*dT*dG*dT*dT) [AS-II-288-12]")
"f"

This collection of values is drawn from patent US20080311126A1.
